# TEST NAME: Appearance (color, clumping, flowability) of stored 25HC3S salts
# Type: physicochemical
# TEST SETTINGS: 80° C., 3 weeks
Counter-ions that a name gives are not always drawn.
READOUT KIND: Appearance after 3 weeks at 80° C.

CC(CCCC(C)(C)O)C1CCC2C3CC=C4CC(OS(=O)(=O)O)CCC4(C)C3CCC12C (stereo not drawn) [Salt #1]; completely burned
CC(CCCC(C)(C)O)C1CCC2C3CC=C4CC(OS(=O)(=O)O)CCC4(C)C3CCC12C (stereo not drawn) [Salt #2]; completely burned
CC(CCCC(C)(C)O)C1CCC2C3CC=C4CC(OS(=O)(=O)O)CCC4(C)C3CCC12C (stereo not drawn) [Salt #6]; completely burned

====

# TEST NAME: Appearance (color, clumping, flowability) of stored 25HC3S salts
# Type: physicochemical
# TEST SETTINGS: 80° C., 3 weeks
# Description: Approximately 25 mg of each crystalline 25HC3S salt was added to 20 mL glass vials and each powder weight was recorded. Four vials were prepared for each salt and stored at 2-8° C. or 80° C. according to Table B2. The samples were scheduled initially to pull for testing at 3 weeks and 6 weeks' time points. For those […] salts, the remaining vials stored at 2-8° C. for 3 weeks were allocated for storage at 60° C. for 1 week. Additional stability data was generated according to Table B3. […]
Counter-ions that a name gives are not always drawn.
READOUT KIND: Appearance after 3 weeks at 80° C.

CC(CCCC(C)(C)O)C1CCC2C3CC=C4CC(OS(=O)(=O)O)CCC4(C)C3CCC12C (stereo not shown) [Salt #3]; completely burned
CC(CCCC(C)(C)O)C1CCC2C3CC=C4CC(OS(=O)(=O)O)CCC4(C)C3CCC12C (stereo not shown) [Salt #7]; completely burned
CC(CCCC(C)(C)O)C1CCC2C3CC=C4CC(OS(=O)(=O)O)CCC4(C)C3CCC12C (stereo not shown) [Salt #13]; completely burned
CC(CCCC(C)(C)O)C1CCC2C3CC=C4CC(OS(=O)(=O)O)CCC4(C)C3CCC12C (stereo not shown) [Salt #5]; completely burned

====

# TEST NAME: Solid-state chemical stability of 25HC3S salts at 2-8° C., 60° C. and 80° C. (HPLC assay and degradation products)
# Format: physicochemical
# TEST SETTINGS: solid state, 2-8° C., 3 wk; read-out: Assay
Where a name gives a salt, the structure may show the parent alone.
Quick reference for remaining at 504 h among some compounds
Write the answer as a number in %, unit excluded.

C[C@H](CCCC(C)(C)O)[C@H]1CC[C@H]2[C@@H]3CC=C4C[C@@H](OS(=O)(=O)O)CC[C@]4(C)[C@H]3CC[C@]12C [Salt #14]; 91.5

What the record says about CC(CCCC(C)(C)O)C1CCC2C3CC=C4CC(OS(=O)(=O)O)CCC4(C)C3CCC12C (centres unmarked) [Salt #1] : remaining at 504 h is 97.8

====

# TEST NAME: Solid-state chemical stability of 25HC3S salts at 2-8° C., 60° C. and 80° C. (HPLC assay and degradation products)
# Assay type: physicochemical
# TEST SETTINGS: solid state, 80° C., 3 wk, vs 2-8° C.; read-out: % Recovery
Structures can show the parent of a compound that is named as a salt.
READOUT KIND: remaining at 504 h (%)
Numbers only; they are read as %.

// C[C@H](CCCC(C)(C)O)[C@H]1CC[C@H]2[C@@H]3CC=C4C[C@@H](OS(=O)(=O)O)CC[C@]4(C)[C@H]3CC[C@]12C [Salt #14] : remaining at 504 h value = 101

====

# TEST NAME: Solid-state chemical stability of 25HC3S salts at 2-8° C., 60° C. and 80° C. (HPLC assay and degradation products)
# Type: physicochemical
# TEST SETTINGS: solid state; 3 weeks and 5 weeks, 2-8° C. and 80° C.; read-out: Degradation by area normalization
Structures can show the parent of a compound that is named as a salt.
READOUT KIND: degraded

Consider CC(CCCC(C)(C)O)C1CCC2C3CC=C4CC(OS(=O)(=O)O)CCC4(C)C3CCC12C (stereo not shown) [Salt #9] . Its measured degraded is 64 to 65%

====

# TEST NAME: Solubility of 25HC3S salts after one day at room temperature (HPLC, as free acid)
# Format: physicochemical
# TEST SETTINGS: isopropyl alcohol, organic solvent or mixture, isopropyl alcohol, room temperature, one day, as free acid; read-out: Solubility in IPA
Where a name gives a salt, the structure may show the parent alone.
READOUT KIND: solubility at 24 h (µg/mL)
Numeric answer only, unit µg/mL assumed.

The compound listed as C[C@H](CCCC(C)(C)O)[C@H]1CC[C@H]2[C@@H]3CC=C4C[C@@H](OS(=O)(=O)O)CC[C@]4(C)[C@H]3CC[C@]12C [Salt #14] has a reported solubility at 24 h of 900

====

# TEST NAME: Solid-state chemical stability of 25HC3S salts at 2-8° C., 60° C. and 80° C. (HPLC assay and degradation products)
# Type: physicochemical
# TEST SETTINGS: solid state, 60° C., 1 week (after 3 weeks at 2-8° C.)
Structures can show the parent of a compound that is named as a salt.
READOUT KIND: Stability after 1 week at 60° C. (in words)

Below: 6 compounds and their reported Stability after 1 week at 60° C. (in words).
CC(CCCC(C)(C)O)C1CCC2C3CC=C4CC(OS(=O)(=O)O)CCC4(C)C3CCC12C (stereo not shown) [Salt #1]; stable
CC(CCCC(C)(C)O)C1CCC2C3CC=C4CC(OS(=O)(=O)O)CCC4(C)C3CCC12C (stereo not shown) [Salt #2]; totally decomposed
CC(CCCC(C)(C)O)C1CCC2C3CC=C4CC(OS(=O)(=O)O)CCC4(C)C3CCC12C (stereo not shown) [Salt #6]; stable
CC(CCCC(C)(C)O)C1CCC2C3CC=C4CC(OS(=O)(=O)O)CCC4(C)C3CCC12C (stereo not shown) [Salt #7]; stable
CC(CCCC(C)(C)O)C1CCC2C3CC=C4CC(OS(=O)(=O)O)CCC4(C)C3CCC12C (stereo not shown) [Salt #3]; totally decomposed
CC(CCCC(C)(C)O)C1CCC2C3CC=C4CC(OS(=O)(=O)O)CCC4(C)C3CCC12C (stereo not shown) [Salt #5]; totally decomposed

Field Stability after 1 week at 60° C. (in words) (entry CC(CCCC(C)(C)O)C1CCC2C3CC=C4CC(OS(=O)(=O)O)CCC4(C)C3CCC12C (stereo not shown) [Salt #13] ) reads totally decomposed

====

# TEST NAME: Solubility of 25HC3S salts after one day at room temperature (HPLC, as free acid)
# Assay type: physicochemical
# TEST SETTINGS: methanol, organic solvent or mixture, methanol, room temperature, one day, as free acid; ≥ = did not reach saturation; read-out: Solubility in MeOH
# Method: These fluids were prepared per the instruction listed by Biorelevant (Biorelevant.com). Each buffer concentrate was diluted with water and mixed well. FaSSIF, FeSSIF, FaSSGF powder was added to each buffer and mixed to completely dissolve the powder. Buffers were stored at room temperature and used within 48 hours of preparation. […] All solubility sample solutions of 25HC3S salts were determined using HPLC. […] Detection limit (LOD) of the HPLC method was calculated as 0.0007 mg/mL.
Counter-ions that a name gives are not always drawn.
READOUT KIND: solubility at 24 h (µg/mL)
Use µg/mL as the unit, but write only the number.

The recorded solubility at 24 h for C[C@H](CCCC(C)(C)O)[C@H]1CC[C@H]2[C@@H]3CC=C4C[C@@H](OS(=O)(=O)O)CC[C@]4(C)[C@H]3CC[C@]12C [Salt #14] is 5900

====

# TEST NAME: Solubility of 25HC3S salts after one day at room temperature (HPLC, as free acid)
# Assay type: physicochemical
# TEST SETTINGS: 0.9% nacl, room temperature, one day, as free acid; ND = not detected, detection limit 0.7 μg/mL; read-out: Solubility in 0.9% NaCl
Counter-ions that a name gives are not always drawn.
READOUT KIND: solubility at 24 h (µg/mL)
Quick note: give the figure in µg/mL, leave out the unit.

Reported solubility at 24 h of C[C@H](CCCC(C)(C)O)[C@H]1CC[C@H]2[C@@H]3CC=C4C[C@@H](OS(=O)(=O)O)CC[C@]4(C)[C@H]3CC[C@]12C [Salt #14] : 8

solubility at 24 h for CC(CCCC(C)(C)O)C1CCC2C3CC=C4CC(OS(=O)(=O)O)CCC4(C)C3CCC12C (centres unmarked) [Salt #5] is 2

====

# TEST NAME: Solubility of 25HC3S salts after one day at room temperature (HPLC, as free acid)
# Format: physicochemical
# TEST SETTINGS: water, room temperature, one day, as 25HC3S free acid; read-out: Solubility in water
Where a name gives a salt, the structure may show the parent alone.
READOUT KIND: solubility at 24 h (µg/mL)
Kindly answer with a numeric value in µg/mL, unit omitted.

Lab book: solubility at 24 h of CC(CCCC(C)(C)O)C1CCC2C3CC=C4CC(OS(=O)(=O)O)CCC4(C)C3CCC12C (stereo not shown) [Salt #9] noted as 6
